Biological target: Thymidine kinase (Human herpesvirus 1 (strain SC16) (HHV-1) (Human herpes simplex virus1), UniProt P06479)
Sequence (P06479 whole entry): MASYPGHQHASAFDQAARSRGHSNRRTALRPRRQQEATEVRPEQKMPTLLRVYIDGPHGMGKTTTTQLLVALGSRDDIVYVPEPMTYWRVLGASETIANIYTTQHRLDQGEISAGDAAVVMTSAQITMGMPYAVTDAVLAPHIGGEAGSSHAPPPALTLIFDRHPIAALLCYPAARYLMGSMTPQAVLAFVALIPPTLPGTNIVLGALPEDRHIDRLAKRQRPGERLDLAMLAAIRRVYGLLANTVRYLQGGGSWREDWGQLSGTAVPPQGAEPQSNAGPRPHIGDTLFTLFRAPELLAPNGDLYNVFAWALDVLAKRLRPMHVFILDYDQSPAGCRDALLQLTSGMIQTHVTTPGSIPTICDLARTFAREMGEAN
Experiment: Inhibitory concentration against herpes simplex virus type 1 thymidine kinase
PROPERTY LABEL: log10(IC50) (log10 of the value in µM)

OCCCCn1cnc2c(O)nc(Sc3ccccc3)nc21    -0.30
O=c1[nH]c(Nc2ccccc2)nc2c1ncn2CCO    0.64
CC1CN(CCCCn2cnc3c(O)nc(Nc4ccccc4)nc32)CC(C)N1 (stereo not drawn)    0.85
Oc1nc(Nc2ccccc2)nc2c1ncn2CCCCN1CCC(O)CC1    0.91
O=C(O)CCCn1cnc2c(O)nc(Nc3ccccc3)nc21    0.00
COC1CCN(CCCCn2cnc3c(O)nc(Nc4ccccc4)nc32)CC1    0.36
Cl.Cl.Oc1nc(Nc2ccccc2)nc2c1ncn2CCCCN1CCCC2CCCCC21 (stereo not drawn)    -0.82
CN(c1ccccc1)c1nc2c(ncn2CCCCO)c(=O)[nH]1    1.20
Oc1nc(Nc2ccccc2)nc2c1ncn2CCCCN1CCC(O)(c2ccc(Cl)c(C(F)(F)F)c2)CC1    0.30
Oc1nc(Nc2ccccc2)nc2c1ncn2CCCCN1CCC(N2CCCCC2)CC1    1.22
O=c1[nH]c(Oc2ccccc2)nc2c1ncn2CCCCO    -0.12
COCCCCn1cnc2c(=O)[nH]c(Nc3ccccc3)nc21    1.08
Oc1nc(Nc2ccccc2)nc2c1ncn2CCCCN1CCCc2ccccc21    -0.46
Oc1nc(Nc2ccccc2)nc2c1ncn2CCCCN1CCCC1CN1CCCCC1 (stereo not drawn)    0.00
OCCC1CCCCN1CCCCn1cnc2c(O)nc(Nc3ccccc3)nc21 (stereo not drawn)    -0.11
Oc1nc(Nc2ccccc2)nc2c1ncn2CCCCN1CCCCC1c1ccccc1 (stereo not drawn)    -0.26
CCN(C)CCCCn1cnc2c(O)nc(Nc3ccccc3)nc21    0.67
OCCN(CCO)CCCCn1cnc2c(O)nc(Nc3ccccc3)nc21    0.72
C=CCN(CC=C)CCCCn1cnc2c(O)nc(Nc3ccccc3)nc21    0.32
CN(C)CCCCn1cnc2c(O)nc(Nc3ccccc3)nc21    0.56
OCCCCCn1cnc2c(O)nc(Nc3ccccc3)nc21    1.18
N#CC1(c2ccccc2)CCN(CCCCn2cnc3c(O)nc(Nc4ccccc4)nc32)CC1    -0.39
Oc1nc(Nc2ccccc2)nc2c1ncn2CCCCN1CCCC(O)C1 (stereo not drawn)    0.76

====

Target: Thymidine kinase (Human herpesvirus 2)
Sequence (Q6L709 whole entry): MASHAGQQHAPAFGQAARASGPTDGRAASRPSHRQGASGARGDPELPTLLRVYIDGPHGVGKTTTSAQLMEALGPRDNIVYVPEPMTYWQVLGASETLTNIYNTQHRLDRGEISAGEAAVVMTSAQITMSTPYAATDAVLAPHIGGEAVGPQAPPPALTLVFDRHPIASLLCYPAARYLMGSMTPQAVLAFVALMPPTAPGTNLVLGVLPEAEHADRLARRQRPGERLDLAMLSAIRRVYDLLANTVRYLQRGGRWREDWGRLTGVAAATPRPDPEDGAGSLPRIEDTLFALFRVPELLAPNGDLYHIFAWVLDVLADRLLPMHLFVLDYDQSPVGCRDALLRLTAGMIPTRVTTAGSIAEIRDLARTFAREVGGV
pIC50: −log10 of the molar value.
Below is a list of entries, each paired with its recorded pIC50 value.
PROPERTY LABEL: pIC50

CCN(C)CCCCn1cnc2c(O)nc(Nc3ccccc3)nc21    6.42
CN(c1ccccc1)c1nc2c(ncn2CCCCO)c(=O)[nH]1    4.43
Oc1nc(Nc2ccccc2)nc2c1ncn2CCCCN1CCC(N2CCCCC2)CC1    6.00
Oc1nc(Nc2ccccc2)nc2c1ncn2CCCCN1CCC(O)(c2ccc(Cl)c(C(F)(F)F)c2)CC1    6.70
Oc1nc(Nc2ccccc2)nc2c1ncn2CCCCN1CCCc2ccccc21    7.33
OCCCCCn1cnc2c(O)nc(Nc3ccccc3)nc21    4.27
COC1CCN(CCCCn2cnc3c(O)nc(Nc4ccccc4)nc32)CC1    6.85
Cl.Cl.Oc1nc(Nc2ccccc2)nc2c1ncn2CCCCN1CCCCC1    6.66
O=C(O)CCCn1cnc2c(O)nc(Nc3ccccc3)nc21    6.15
Oc1nc(Nc2ccccc2)nc2c1ncn2CCCCN1CCCC(O)C1 (stereo unspecified)    6.51
N#CC1(c2ccccc2)CCN(CCCCn2cnc3c(O)nc(Nc4ccccc4)nc32)CC1    6.66
